- Test system: DU-145 prostate
- test: NCI tumour cell line growth inhibition, 48 h; in the data active = GI50 below about 0.43 µM; inactive = the rest
Return exactly one item of active, inactive

Answered cases to consult:
{"compound": "CCC(O)c1ccc(Br)cc1NC(=O)c1cccc(Cl)c1 (centres undefined)", "group": "inactive"}
{"compound": "CCCCCCCCOC(=O)CC[C@@H](C)[C@H]1CC[C@H]2[C@@H]3[C@H](OC(=O)CCN)C[C@@H]4C[C@H](OC(=O)CCN)CC[C@]4(C)[C@H]3C[C@H](OC(=O)CCN)[C@]12C", "group": "inactive"}
{"compound": "COc1cc2c(c(OC)c1OC)-c1ncc3c(OC)c(OC)c(OC)cc3c1C2", "group": "inactive"}
{"compound": "COc1ccccc1C#Cc1ccccc1C#CCCCCO", "group": "inactive"}
{"compound": "O=C1/C(=C/c2cccc(Br)c2)COc2ccc(O)cc21", "group": "inactive"}

Now turn to the next compound.
Task: Name the outcome recorded for CC(=O)Oc1ccc(C23c4ccccc4C2(OC(C)=O)c2cc(OC(C)=O)ccc23)cc1 (centres undefined) in the assay.
Result: inactive

###

- Test system: A549 NSCLC
- test: NCI tumour cell line growth inhibition, 48 h; in the data active = GI50 below about 0.43 µM; inactive = the rest
Return exactly one item of Y for active, N for inactive

{"sample.smiles": "CCOC(=O)c1[nH]c(Br)c(-c2ccc(OC)c(OC)c2)c1Br", "group": "Y"}
{"sample.smiles": "COc1ccc2cc(/C=C/C(=O)c3ccc(Cl)cc3Cl)ccc2c1", "group": "N"}
{"sample.smiles": "Cc1nc(-c2ccccc2)n2nc(NCCCN3CCOCC3)ncc12", "group": "N"}
{"sample.smiles": "Nc1nonc1-c1nc2cnccc2n1C1CC1", "group": "N"}

Now turn to the next compound.
Task: Name the outcome recorded for CC(=O)c1c(C)nc(SSc2nc(C)c(C(C)=O)c(-c3ccc(Cl)cc3)c2C#N)c(C#N)c1-c1ccc(Cl)cc1 in the assay.
Result: N

###

- System: NCI-H226 lung
- test: NCI tumour cell line growth inhibition, 48 h
observable: TGI (µM)
Your answer should be a plain number; it is taken to be in µM.

Task: Could you share what TGI was measured for Nc1ccccc1C#C/C=C\C#Cc1ccc(OCCCNC(=O)c2cc3ccccc3[nH]2)cc1 , tested on NCI-H226 lung?
Result: 87.7

Task: Could you share what TGI was measured for O=C(O)c1ccc(CI)cc1 , tested on NCI-H226 lung?
Result: 44.1

Task: Could you share what TGI was measured for O=C(N/N=C/c1cc(Cl)cc(Cl)c1[O-])c1ccccc1O.O=C(N/N=C/c1cc(Cl)cc(Cl)c1[O-])c1ccccc1O.[Co+2] , tested on NCI-H226 lung?
Result: 4.1

Task: Could you share what TGI was measured for CCCCCCCCOC(=O)CC[C@@H](C)[C@H]1CC[C@H]2[C@@H]3[C@H](OC(=O)CCN)C[C@@H]4C[C@H](OC(=O)CCN)CC[C@]4(C)[C@H]3C[C@H](OC(=O)CCN)[C@]12C , tested on NCI-H226 lung?
Result: 44.8

###

- Test system: SF-295 CNS
- test: NCI tumour cell line growth inhibition, 48 h
observable: GI50

{"sample.smiles": "COc1cc(F)c(F)c(Nc2ccc(I)cc2F)c1NS(=O)(=O)C1(C[C@H](O)CO)CC1", "GI50": "> 5.78 µM"}
{"sample.smiles": "CCOC(=O)C(Cc1c[nH]c2c(N(CCO)CCO)cccc12)(NC(C)=O)C(=O)OCC", "GI50": "148 µM"}
{"sample.smiles": "CCCCCCCCOC(=O)CC[C@@H](C)[C@H]1CC[C@H]2[C@@H]3[C@H](OC(=O)CCN)C[C@@H]4C[C@H](OC(=O)CCN)CC[C@]4(C)[C@H]3C[C@H](OC(=O)CCN)[C@]12C", "GI50": "3.51 µM"}
{"sample.smiles": "CC[n+]1oc(C(=O)c2ccc(Cl)cc2)c(-c2ccccc2)c1-c1ccccc1.[Cl][Fe]([Cl])([Cl])[Cl]", "GI50": "53.1 µM"}
{"sample.smiles": "C[C@@H]1C[C@H](C)CN(S(=O)(=O)c2ccc3c(NO)c4ccc(S(=O)(=O)N5C[C@H](C)C[C@H](C)C5)cc4c(N=O)c3c2)C1", "GI50": "0.178 µM"}

Moving on to the next molecule.
Task: So what does the record say about GI50 for Cn1c(-c2c(N)n(Nc3cccc(Cl)c3)c3nc(C#N)c(C#N)nc23)nc2ccccc21 ?
Result: 11 µM
